# Experimental Details: HILIC, Waters ACQUITY UPLC BEH Amide, 100 × 2.1 mm, 1.7 µm; A: water + 0.125% formic acid + 10 mM ammonium formate; B: 5% water + 95% acetonitrile + 0.125% formic acid + 10 mM ammonium formate; gradient (min/%B) 0/100 2/100 7.7/70 9.5/40 10.25/30 12.75/100 17/100
# Experimental Context: stereoisomer not certain
Could you please report measured LC retention time for the items listed next?
The reply should be a number in min, with the unit left off.

QUERY: So what does the record say about LC retention time for O=C(O)CCCCCO [6-Hydroxycaproic acid] ?
RESULT: 1.34

QUERY: Lookup O=C(O)CNC(=O)c1ccco1 [N-(2-Furoyl)glycine]
RESULT: 4.01

QUERY: Lookup COc1ccc2[nH]cc(CC(=O)O)c2c1 [5-Methoxy-3-indoleacetic acid]
RESULT: 1.32

QUERY: Lookup CC12CC(=O)C3C(CCC4=CC(=O)CCC43C)C1CCC2=O (configuration not stated) [Adrenosterone]
RESULT: 1.1

QUERY: Lookup COC(=O)N1CCN(C(=O)Cc2ccc(Cl)c(Cl)c2)C(CN2CCCC2)C1 (configuration not stated)
RESULT: 2.56

QUERY: Lookup CN=C1CN(O)C(c2ccccc2)=c2cc(Cl)ccc2=N1 [Chlordiazepoxide]
RESULT: 1.35

QUERY: Lookup Cc1nc2ccc(CN(C)c3ccc(C(=O)NC(CCC(=O)O)C(=O)O)s3)cc2c(=O)[nH]1 (configuration not stated) [Raltitrexed]
RESULT: 7.35

QUERY: Lookup CN1CCC(=C2c3ccccc3CC(=O)c3sccc32)CC1 [Ketotifen]
RESULT: 2.71

QUERY: Lookup CC(=O)CCCC(=O)O [4-Acetylbutyric acid]
RESULT: 1.24

QUERY: Lookup CS(=O)CCCCN=C=S (configuration not stated) [Sulforaphane]
RESULT: 1.14

QUERY: Lookup NCCc1ccc(O)cc1 [Tyramine]
RESULT: 5.58

QUERY: Lookup O=C(O)CC1C(=O)Nc2ccccc21 (configuration not stated) [(2-oxo-2,3-dihydro-1H-indol-3-yl)acetic acid]
RESULT: 2.02

QUERY: Lookup NC(CCOC(=O)CCC(=O)O)C(=O)O (configuration not stated) [O-Succinylhomoserine]
RESULT: 8.06

QUERY: Lookup NNCCc1ccccc1 [Phenelzine]
RESULT: 4.45

QUERY: Lookup O=c1ccc2cccc(O)c2[nH]1 [2,8-Quinolinediol]
RESULT: 1.53

QUERY: Lookup COc1cc(N)c(Cl)cc1C(=O)NC1CCN(CCCOc2ccc(F)cc2)CC1OC (configuration not stated) [Cisapride]
RESULT: 2.28

QUERY: Lookup Nc1ccccc1C(=O)CC(N)C(=O)O (configuration not stated) [Kynurenine]
RESULT: 6.98

* * *

Could you please report measured LC retention time for the items listed next?
# Experimental Details: HILIC, Waters ACQUITY UPLC BEH Amide, 100 × 2.1 mm, 1.7 µm; A: water + 0.125% formic acid + 10 mM ammonium formate; B: 5% water + 95% acetonitrile + 0.125% formic acid + 10 mM ammonium formate; gradient (min/%B) 0/100 2/100 7.7/70 9.5/40 10.25/30 12.75/100 17/100
# Experimental Context: stereoisomer not certain
The reply should be a number in min, with the unit left off.

QUERY: So what does the record say about LC retention time for CC(=O)Nc1ccc2c(c1)Cc1ccccc1-2 [N-2-Fluorenylacetamide] ?
RESULT: 4.74

QUERY: Lookup Cc1ccc(NC(=O)c2ccc(CN3CCN(C)CC3)cc2)cc1Nc1nccc(-c2cccnc2)n1
RESULT: 5.36

QUERY: Lookup CC(=O)OC(CC(=O)[O-])C[N+](C)(C)C (stereo unspecified)
RESULT: 7.19

QUERY: Lookup CN(C)CCC(c1ccc(Br)cc1)c1ccccn1 (stereo unspecified)
RESULT: 2.56

QUERY: Lookup NC(N)=NCCCCC(N)C(=O)O (stereo unspecified)
RESULT: 9.34

QUERY: Lookup COc1ccc(C=O)cc1OC
RESULT: 1.08

QUERY: Lookup COC1C=COC2(C)Oc3c(C)c(O)c4c(O)c(c5c(c4c3C2=O)=NC2(CCN(CC(C)C)CC2)N=5)NC(=O)C(C)=CC=CC(C)C(O)C(C)C(O)C(C)C(OC(C)=O)C1C (stereo unspecified)
RESULT: 2.76

QUERY: Lookup CC=C1C2C=C(C)CC1(N)c1ccc(=O)[nH]c1C2 (stereo unspecified)
RESULT: 5.74

QUERY: Lookup NC(Cc1ccc(OP(=O)(O)O)cc1)C(=O)O (stereo unspecified)
RESULT: 9.72

QUERY: Lookup O=C(O)CCCCCCCCCCCCCCCCC(=O)O
RESULT: 1.24

QUERY: Lookup CC(CCC(=O)O)C1CCC2C3C(=O)CC4CC(=O)CCC4(C)C3CC(=O)C12C (stereo unspecified) [Dehydrocholic acid]
RESULT: 1.16
